- System: S. typhimurium/E. coli reverse mutation, colony counts
- test-description: Bacterial reverse mutation test (aka Ames test) summary data;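 note: His-minus Salmonella and trp-minus E. coli WP2 uvrA pKM101 with or without liver S9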
Inconclusive results are not listed. Active and inactive are the calls of the source. The rule behind the calls is not given here.

{"columns": ["smiles-notation", "tested-target", "outcome"],
 "data": [
  ["ICCc1ccccc1", "S. typhimurium/E. coli reverse mutation, colony counts", "inactive; negative"],
  ["COc1ccc([N+](=O)[O-])cc1N=Nc1c(O)c(C(=O)Nc2cccc([N+](=O)[O-])c2)cc2ccccc12", "S. typhimurium/E. coli reverse mutation, colony counts", "active; positive"],
  ["Nc1ccc(N=Nc2ccc(-c3ccc(N=Nc4c(S(=O)(=O)O)cc5cc(S(=O)(=O)O)c(N=Nc6ccccc6)c(O)c5c4N)cc3)cc2)c(N)c1", "S. typhimurium/E. coli reverse mutation, colony counts", "active; positive"],
  ["COP(=O)(OC)O/C(=C\\Cl)c1cc(Cl)c(Cl)cc1Cl", "S. typhimurium/E. coli reverse mutation, colony counts", "inactive; negative"],
  ["COc1ccc(N)cc1", "S. typhimurium/E. coli reverse mutation, colony counts", "active; positive"]
]}

###

- System: S. typhimurium/E. coli reverse mutation, colony counts
- test-description: Bacterial reverse mutation test (aka Ames test) summary data;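 note: His-minus Salmonella and trp-minus E. coli WP2 uvrA pKM101 with or without liver S9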
Inconclusive results are not listed. The source made the active and inactive calls. No rule for the calls is given here.
Outcomes: yes for active, no for inactive

{"columns": ["molecule", "assigned-label"],
 "data": [
  ["C[C@]12CC[C@@H]3c4ccc(O)cc4CC[C@H]3[C@@H]1CC[C@@H]2O", "no"],
  ["Nc1c(Oc2ccccc2)cc(O)c2c1C(=O)c1ccccc1C2=O", "yes"],
  ["CC(C)NC(C)C", "no"],
  ["Clc1c(Cl)c(Cl)c2c(Cl)c(Cl)c(Cl)c(Cl)c2c1Cl", "no"],
  ["CCC1NC(=O)c2cc(S(N)(=O)=O)c(Cl)cc2N1 (stereo unspecified)", "no"],
  ["O=C(O)CCC(=O)OC[C@@H](NC(=O)C(Cl)Cl)[C@H](O)c1ccc([N+](=O)[O-])cc1", "no"],
  ["Nc1n[nH]c(N)n1", "no"],
  ["CC(=O)NS(=O)(=O)c1ccc(N)cc1", "no"],
  ["CC(C)(C)OCC1CO1 (stereo unspecified)", "yes"],
  ["NCCCN", "no"],
  ["Cc1ccccc1O", "no"],
  ["CCCC(C)=O", "no"],
  ["O=CNc1ccccc1", "no"],
  ["Nc1cccc(N)c1", "yes"],
  ["CC(C)=CCCC(C)CCO (stereo unspecified)", "no"],
  ["Nc1nc(N)c2nc(-c3ccccc3)c(N)nc2n1", "no"]
]}

###

- Test system: S. typhimurium/E. coli reverse mutation, colony counts
- test-description: Bacterial reverse mutation test (aka Ames test) summary data;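 note: His-minus Salmonella and trp-minus E. coli WP2 uvrA pKM101 with or without liver S9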
Records with an inconclusive call do not appear. The source made the active and inactive calls. The rule behind the calls is not given here.
Outcomes: active, inactive

{"columns": ["compound", "assigned-label"],
 "data": [
  ["CC(C)Cc1nccs1", "active"],
  ["CN(C)C(=O)Cl", "active"],
  ["CN1CCC(CN2c3ccccc3Sc3ccccc32)C1 (configuration not stated)", "inactive"],
  ["Cc1cccc(N)c1C", "active"],
  ["C=CC(=O)OCC(C)C", "inactive"],
  ["ClCC(Cl)CCl", "active"],
  ["FC(F)(F)c1ccccc1", "inactive"],
  ["Cc1cc2nc(N)sc2cc1C", "active"],
  ["c1ccc(-c2ccccc2)cc1", "inactive"],
  ["CCCCCCCC/C=C\\CCCCCCCC(=O)N(CCO)CCO", "inactive"],
  ["CCCCC(CC)COCCC#N (configuration not stated)", "inactive"],
  ["Nc1ccc(N)c(Cl)c1", "active"],
  ["O=C(OCC1CO1)c1cccc(C(=O)OCC2CO2)c1 (configuration not stated)", "active"],
  ["O=C(O)c1c(Cl)cccc1Cl", "inactive"],
  ["O=C(O)c1ccccc1[N+](=O)[O-]", "active"],
  ["C=Cc1ccccc1Cl", "inactive"],
  ["C[N+](C)=c1ccc2nc3ccc(N)cc3sc-2c1", "active"]
]}

###

- Tested on: S. typhimurium/E. coli reverse mutation, colony counts
- test-description: Bacterial reverse mutation test (aka Ames test) summary data;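 note: His-minus Salmonella and trp-minus E. coli WP2 uvrA pKM101 with or without liver S9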
Results filed as inconclusive are left out. Calls of active or inactive are those of the source. No rule for the calls is given here.
Outcomes: class 1 for active, class 0 for inactive

{"columns": ["molecule", "tested-target", "assigned-label"],
 "data": [
  ["ClC(Cl)=C(Cl)Cl", "S. typhimurium/E. coli reverse mutation, colony counts", "class 0"],
  ["C=CBr", "S. typhimurium/E. coli reverse mutation, colony counts", "class 1"],
  ["CN(C)c1ccc(N)cc1", "S. typhimurium/E. coli reverse mutation, colony counts", "class 1"],
  ["[N-]=[N+]=[N-]", "S. typhimurium/E. coli reverse mutation, colony counts", "class 1"],
  ["CC(=O)c1ccccn1", "S. typhimurium/E. coli reverse mutation, colony counts", "class 0"],
  ["Clc1cccc(Cl)c1Cl", "S. typhimurium/E. coli reverse mutation, colony counts", "class 0"],
  ["O=[N+]([O-])c1cc([N+](=O)[O-])c2ccc(S(=O)(=O)O)cc2c1O", "S. typhimurium/E. coli reverse mutation, colony counts", "class 1"],
  ["ClC(Cl)C(Cl)Cl", "S. typhimurium/E. coli reverse mutation, colony counts", "class 0"],
  ["CN(C)C(=O)Nc1ccc(Cl)cc1", "S. typhimurium/E. coli reverse mutation, colony counts", "class 0"],
  ["CC(C)(C)OO", "S. typhimurium/E. coli reverse mutation, colony counts", "class 1"],
  ["CCOP(=O)(NC(C)C)Oc1ccc(SC)c(C)c1 (configuration not stated)", "S. typhimurium/E. coli reverse mutation, colony counts", "class 0"],
  ["C1CNCCN1", "S. typhimurium/E. coli reverse mutation, colony counts", "class 0"],
  ["FCC1CO1 (configuration not stated)", "S. typhimurium/E. coli reverse mutation, colony counts", "class 1"],
  ["ClC1C(Cl)C(Cl)C(Cl)C(Cl)C1Cl (configuration not stated)", "S. typhimurium/E. coli reverse mutation, colony counts", "class 0"],
  ["Cc1ccccc1C=O", "S. typhimurium/E. coli reverse mutation, colony counts", "class 0"],
  ["Nc1ccc2cc3ccccc3cc2c1", "S. typhimurium/E. coli reverse mutation, colony counts", "class 1"],
  ["OC(O)C(Cl)(Cl)Cl", "S. typhimurium/E. coli reverse mutation, colony counts", "class 1"],
  ["CC(N)=O", "S. typhimurium/E. coli reverse mutation, colony counts", "class 0"],
  ["O=C(O)C=Cc1ccc(C=CC(=O)O)cc1", "S. typhimurium/E. coli reverse mutation, colony counts", "class 0"],
  ["Cc1cc(C(C)(C)C)c(O)c(C(C)(C)C)c1", "S. typhimurium/E. coli reverse mutation, colony counts", "class 0"],
  ["CC(=O)c1c(C)c([N+](=O)[O-])c(C(C)(C)C)c([N+](=O)[O-])c1C", "S. typhimurium/E. coli reverse mutation, colony counts", "class 0"],
  ["Oc1ccc(Cl)cc1Sc1cc(Cl)ccc1O", "S. typhimurium/E. coli reverse mutation, colony counts", "class 0"],
  ["O=C(/C=C/C=C/c1ccc2c(c1)OCO2)N1CCCCC1", "S. typhimurium/E. coli reverse mutation, colony counts", "class 0"],
  ["CC(Cl)CN(C)C (configuration not stated)", "S. typhimurium/E. coli reverse mutation, colony counts", "class 1"],
  ["CCCCNCCCC", "S. typhimurium/E. coli reverse mutation, colony counts", "class 0"],
  ["Clc1ccccc1", "S. typhimurium/E. coli reverse mutation, colony counts", "class 0"],
  ["ClCCOCCCl", "S. typhimurium/E. coli reverse mutation, colony counts", "class 1"],
  ["NC1CCC(CC2CCC(N)CC2)CC1 (configuration not stated)", "S. typhimurium/E. coli reverse mutation, colony counts", "class 0"],
  ["O=C(Cl)c1ccccc1[N+](=O)[O-]", "S. typhimurium/E. coli reverse mutation, colony counts", "class 1"],
  ["BrC(Br)C(Br)(Br)Br", "S. typhimurium/E. coli reverse mutation, colony counts", "class 0"],
  ["ClCC(Br)CBr (configuration not stated)", "S. typhimurium/E. coli reverse mutation, colony counts", "class 1"],
  ["ClC1=C(Cl)[C@]2(Cl)[C@@H]3[C@@H]4C[C@@H]([C@H]5O[C@@H]45)[C@@H]3[C@@]1(Cl)C2(Cl)Cl", "S. typhimurium/E. coli reverse mutation, colony counts", "class 0"],
  ["O=C(O)C(F)(F)C(F)(F)C(F)(F)C(F)(F)C(F)(F)C(F)(F)C(F)(F)C(F)(F)C(F)(F)C(F)(F)C(F)(F)F", "S. typhimurium/E. coli reverse mutation, colony counts", "class 0"],
  ["O=c1ccc(=O)[nH][nH]1", "S. typhimurium/E. coli reverse mutation, colony counts", "class 0"],
  ["CC(=O)Nc1cccc(O)c1", "S. typhimurium/E. coli reverse mutation, colony counts", "class 0"],
  ["CCn1cc[n+](C)c1", "S. typhimurium/E. coli reverse mutation, colony counts", "class 0"],
  ["N#CCCC(Br)(C#N)CBr (configuration not stated)", "S. typhimurium/E. coli reverse mutation, colony counts", "class 0"],
  ["CC(=O)Nc1ccc(O)cc1", "S. typhimurium/E. coli reverse mutation, colony counts", "class 0"],
  ["CC1=C(/C=C/C(C)=C/C=C/C(C)=C/CO)C(C)(C)CCC1", "S. typhimurium/E. coli reverse mutation, colony counts", "class 1"],
  ["OCC#CCO", "S. typhimurium/E. coli reverse mutation, colony counts", "class 0"],
  ["Cc1nc2ccc(Cl)cc2[nH]1", "S. typhimurium/E. coli reverse mutation, colony counts", "class 1"],
  ["Nc1c(N=Nc2ccc(-c3ccc(N=Nc4ccc(O)cc4)cc3)cc2)c(S(=O)(=O)O)cc2cc(S(=O)(=O)O)c(N=Nc3ccccc3)c(O)c12", "S. typhimurium/E. coli reverse mutation, colony counts", "class 1"]
]}
